From: paper PMC9033141

system: CAII (Homo sapiens, UniProt P00918);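 further: recombinant human CAII, thermal shift with ANS dye fluorescence, Kd_obs from fitting melting temperature versus ligand concentration, intrinsic values corrected for deprotonated sulfonamide and Zn-bound water fractions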
Construct: made in house; host or cells: E. coli
procedure-summary: biochemical
Format: binding
condition-summary: FTSA, pH 7.0, 37 °C; read-out: Observed Dissociation Constant (Kd_obs), CAII
Documented pKd across a set of compounds
pKd here: minus log base 10 of the concentration, concentration in moles per litre.

[
  {
    "compound": "NS(=O)(=O)c1ccc(NCC(CC(=O)NN=Cc2ccc(C(=O)O)cc2)C(=O)NN=Cc2ccc(C(=O)O)cc2)cc1 (stereo not shown) [Compound 18a]",
    "test-value": 5.30
  }
]

Qu. Hi! What's the reported pKd for COC(=O)CCN(c1ccc(S(N)(=O)=O)cc1)c1nc(C)cs1 on CAII (Homo sapiens, UniProt P00918)?
Ans. 7.35

Qu. Hi! What's the reported pKd for Cc1csc(N(CCC(=O)NN)c2ccc(S(N)(=O)=O)cc2)n1 on CAII (Homo sapiens, UniProt P00918)?
Ans. 6.42
